Each recorded value in this set is attributed to ChEMBL document CHEMBL1201862.

Some compounds, each annotated with its measured GI50.
- Tested on: CAKI-1
- PROCEDURE_DETAILS: NCI tumour cell line growth inhibition, 48 h
Active and inactive are the calls of the source. Rule as the data show it: active = GI50 up to about 1.1 µM and inactive = higher.

1) COc1ccc(-c2cc(-c3cc(F)c(Cl)cc3Cl)on2)cc1OC | 45 µM (inactive)
2) COc1cccc2c1-c1ccccc1[C@H](Nc1ccccc1)[C@@]2(C)O | 4.1 µM (inactive)
3) O=C(/C=C\c1ccc([N+](=O)[O-])cc1)c1ccccc(=O)c1O | 1.32 µM (inactive)
4) CCOC(=O)c1ccc(C(=O)/C(C#N)=C2\CCCN2)[nH]1 | > 100 µM (inactive)
5) O=c1ccc2cc(O)c(O)cc2o1 [ESCULETIN] | > 100 µM (inactive)

Problem: If you can, please state the reported GI50 value of Cn1c(=O)c2nc3sc4ccccc4c(=N)n3c2n(C)c1=O .
Solution: > 100 µM (inactive)

Problem: Quick check: GI50 of Cn1c(=O)n(CC2CS2)c2ccccc21 (stereo not drawn) ?
Solution: 44.5 µM (inactive)

Problem: Using the record for O=C(O)CCc1nc2cc3ccccc3cc2[nH]c1=O , report its GI50.
Solution: > 100 µM (inactive)
